target-or-test-system: T1, human GIP receptor (human, UniProt P48546 22-466)
T1 sequence (looked up): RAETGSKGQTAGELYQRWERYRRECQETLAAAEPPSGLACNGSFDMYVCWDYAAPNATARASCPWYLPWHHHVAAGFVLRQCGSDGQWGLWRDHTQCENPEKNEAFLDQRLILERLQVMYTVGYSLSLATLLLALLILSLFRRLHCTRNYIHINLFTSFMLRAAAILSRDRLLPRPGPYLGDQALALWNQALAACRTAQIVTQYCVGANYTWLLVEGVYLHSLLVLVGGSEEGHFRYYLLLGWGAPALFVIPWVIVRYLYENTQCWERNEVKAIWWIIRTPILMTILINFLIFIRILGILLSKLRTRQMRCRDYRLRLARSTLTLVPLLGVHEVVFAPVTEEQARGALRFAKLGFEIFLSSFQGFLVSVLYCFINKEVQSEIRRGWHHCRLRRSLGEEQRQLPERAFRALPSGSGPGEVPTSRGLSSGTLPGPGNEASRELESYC
assay-procedure: cell-based or functional assay
Bridge positions count the residues as written; N and C are the ends. Square brackets hold non-standard residues; d marks the D form. Ends that are not written are not given here. C20L5A = not defined here; L5A = not defined here; Aib = CC(C)(N)C(=O)O
Below, each of the binders is paired with its reported EC50 [nM] of receptor-mediated cAMP synthesis value.
Your answer should be a number followed by the unit of measure.

See these solved cases before continuing.
- binder: "Y[Aib]EGTFISDVSIYCDKQAA[Aib]CFVNWLIAGGPSSGAPPPS-NH2 (linker 14-21 via L5A; not fully specified; reading uncertain) [7I, 10V, 27I, C(14-21) - L5A]"
  test-result: "12.6 nM"
- binder: "Y[Aib]EGTFTSDYSIYKDKQAA[Aib]KFVNWLLAGGPSSGAPPPS-NH2 (bridge 14-21; not fully specified (bridges); also: K4 staple carries PEG-fatty acid) [mCMD307 (2050-K4)]"
  test-result: "0.01 nM"

# evaluate next
query: Can you share its EC50 [nM] of receptor-mediated cAMP synthesis? I mean this binder: Y[Aib]EGTFTSDYSIYCDKQAA[Aib]CFVNWLLAGGPSSGAPPPS-NH2 (linker 14-21 via C20L5A; reading uncertain) [C(14-21)-C20L5A]
result: 0.05 nM
